System: Klebsiella pneumoniae
procedure summary: Ratio of Kcat to Km of Klebsiella pneumoniae TEM26 assessed as drug hydrolysis by spectrophotometry relative to cephaloridine
Design: scale not given: the % may be the effect or the level left
Provide the recorded Activity for the entries that follow.
Answers are plain numbers, in %.

Worked cases, answers included:
CO/N=C(\C(=O)N[C@@H]1C(=O)N2C(C(=O)[O-])=C(C[N+]3(C)CCCC3)CS[C@H]12)c1csc(N)n1 :: 55
CO/N=C(\C(=O)N[C@@H]1C(=O)N2C(C(=O)O)=C(COC(C)=O)CS[C@H]12)c1csc(N)n1 :: 34
CC(C)(O/N=C(\C(=O)N[C@@H]1C(=O)N2C(C(=O)[O-])=C(C[n+]3ccccc3)CS[C@H]12)c1csc(N)n1)C(=O)O :: 130

Provide Activity for all items below, preserving their order.
1. CC1(C)S[C@@H]2[C@H](NC(=O)Cc3ccccc3)C(=O)N2[C@H]1C(=O)O
2. Nc1nc(/C(=N/O)C(=O)N[C@@H]2C(=O)N3C(C(=O)O)=C(/C=C4\CCN([C@@H]5CCNC5)C4=O)CS[C@H]23)ns1

-- reply
2700
20

Just for reference, ChEMBL document CHEMBL1143427 is where these values come from.
